target system: LRRK2 G2019S (Homo sapiens, UniProt Q5S007, G2019S)
Sequence (Q5S007 whole entry G2019S): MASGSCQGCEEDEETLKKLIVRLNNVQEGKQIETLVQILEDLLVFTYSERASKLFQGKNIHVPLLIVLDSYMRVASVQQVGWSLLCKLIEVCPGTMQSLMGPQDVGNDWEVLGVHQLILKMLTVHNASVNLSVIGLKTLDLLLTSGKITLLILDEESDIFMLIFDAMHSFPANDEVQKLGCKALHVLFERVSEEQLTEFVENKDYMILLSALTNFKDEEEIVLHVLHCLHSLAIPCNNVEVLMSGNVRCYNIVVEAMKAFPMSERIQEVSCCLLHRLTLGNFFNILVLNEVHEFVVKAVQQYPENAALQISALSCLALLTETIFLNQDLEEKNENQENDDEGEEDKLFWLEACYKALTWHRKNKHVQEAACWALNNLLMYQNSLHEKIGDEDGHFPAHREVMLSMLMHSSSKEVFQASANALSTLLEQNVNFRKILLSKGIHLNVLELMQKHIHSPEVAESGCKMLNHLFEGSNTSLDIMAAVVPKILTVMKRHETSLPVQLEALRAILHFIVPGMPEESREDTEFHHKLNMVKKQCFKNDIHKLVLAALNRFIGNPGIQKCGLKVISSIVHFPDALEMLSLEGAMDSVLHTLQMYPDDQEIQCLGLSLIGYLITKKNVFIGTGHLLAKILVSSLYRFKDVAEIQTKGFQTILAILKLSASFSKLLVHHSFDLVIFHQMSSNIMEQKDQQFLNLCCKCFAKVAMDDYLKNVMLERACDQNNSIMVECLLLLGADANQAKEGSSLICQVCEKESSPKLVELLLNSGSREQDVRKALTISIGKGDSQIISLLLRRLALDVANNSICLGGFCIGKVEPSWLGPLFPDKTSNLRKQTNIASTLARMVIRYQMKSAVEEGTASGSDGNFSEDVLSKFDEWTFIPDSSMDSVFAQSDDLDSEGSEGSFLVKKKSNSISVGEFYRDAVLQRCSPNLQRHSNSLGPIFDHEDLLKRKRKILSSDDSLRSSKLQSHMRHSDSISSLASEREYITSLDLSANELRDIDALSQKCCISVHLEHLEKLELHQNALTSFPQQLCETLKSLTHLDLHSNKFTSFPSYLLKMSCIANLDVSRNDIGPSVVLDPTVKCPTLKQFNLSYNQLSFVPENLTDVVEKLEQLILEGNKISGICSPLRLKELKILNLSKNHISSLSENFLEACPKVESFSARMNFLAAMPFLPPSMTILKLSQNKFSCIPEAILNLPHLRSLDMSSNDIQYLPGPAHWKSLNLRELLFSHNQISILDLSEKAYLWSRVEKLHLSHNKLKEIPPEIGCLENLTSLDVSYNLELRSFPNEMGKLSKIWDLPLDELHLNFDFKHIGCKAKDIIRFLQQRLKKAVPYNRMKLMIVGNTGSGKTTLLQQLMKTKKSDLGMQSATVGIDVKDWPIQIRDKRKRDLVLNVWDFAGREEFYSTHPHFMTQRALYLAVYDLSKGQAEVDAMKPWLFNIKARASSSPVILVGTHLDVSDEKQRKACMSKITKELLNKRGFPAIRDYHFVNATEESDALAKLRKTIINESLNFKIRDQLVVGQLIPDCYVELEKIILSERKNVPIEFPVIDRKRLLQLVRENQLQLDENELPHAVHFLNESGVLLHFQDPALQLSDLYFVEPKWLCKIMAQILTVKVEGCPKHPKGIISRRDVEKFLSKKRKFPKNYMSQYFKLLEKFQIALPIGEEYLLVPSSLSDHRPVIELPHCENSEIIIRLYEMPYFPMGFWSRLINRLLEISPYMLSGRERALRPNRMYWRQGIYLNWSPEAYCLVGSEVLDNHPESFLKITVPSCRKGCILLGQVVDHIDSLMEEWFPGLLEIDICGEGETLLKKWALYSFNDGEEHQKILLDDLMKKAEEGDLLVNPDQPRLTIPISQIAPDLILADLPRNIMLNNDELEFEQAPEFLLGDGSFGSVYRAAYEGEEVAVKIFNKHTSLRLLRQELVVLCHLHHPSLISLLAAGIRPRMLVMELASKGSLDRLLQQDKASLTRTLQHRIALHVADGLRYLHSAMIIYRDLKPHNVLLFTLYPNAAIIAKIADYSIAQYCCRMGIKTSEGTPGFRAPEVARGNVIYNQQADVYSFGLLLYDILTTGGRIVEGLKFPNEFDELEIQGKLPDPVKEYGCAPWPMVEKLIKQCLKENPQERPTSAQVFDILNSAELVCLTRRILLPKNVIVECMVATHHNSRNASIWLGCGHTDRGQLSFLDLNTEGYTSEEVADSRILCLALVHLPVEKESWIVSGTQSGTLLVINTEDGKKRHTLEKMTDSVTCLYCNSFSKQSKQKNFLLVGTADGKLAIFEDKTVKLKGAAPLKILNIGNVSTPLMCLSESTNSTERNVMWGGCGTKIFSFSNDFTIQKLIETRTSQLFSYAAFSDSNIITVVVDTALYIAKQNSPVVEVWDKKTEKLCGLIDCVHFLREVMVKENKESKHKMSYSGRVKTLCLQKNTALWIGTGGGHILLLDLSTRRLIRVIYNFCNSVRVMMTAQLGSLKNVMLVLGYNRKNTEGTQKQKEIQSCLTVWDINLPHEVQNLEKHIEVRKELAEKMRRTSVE
method summary: TR-FRET cellular assay for LRRK2 Ser935 phosphorylation, SH-SY5Y cells, BacMam LRRK2-GFP G2019S (incl. Tocriscreen Mini library screen and follow-up)
Type: cell-based
Set-up: This high-throughput assay utilizes cells expressing full-length human LRRK2 with a C-terminal GFP tag (LRRK2-GFP); host or cells: SH-SY5Y cells transduced with BacMam
condition label: dose-response follow-up, SH-SY5Y G2019S, 90 min
Param label: returns True when Cellular TR-FRET Assay Max % Inhibition < 70%, returns False otherwise, including exact equality.

INSERT INTO results (molecule, assigned_label) VALUES
  ('O=Nc1c(-c2c(O)[nH]c3ccccc23)[nH]c2ccccc12', 'True'),
  ('O=C(O)/C=C\C(=O)O.O=C1/C(=C/c2ccccc2)C[C@@]2(O)[C@H]3Cc4ccc(O)c5c4[C@@]2(CCN3CC2CC2)[C@H]1O5 [BNTX maleate]', 'False'),
  ('Oc1c2ccccc2c2c3c(cccc13)N=N2', 'False'),
  ('[O-][S+](c1ccccc1)c1ccc2nnnn2n1 (stereo not drawn)', 'False'),
  ('CCc1ccc(OCc2ccccc2C(=O)Nc2ccc3nc(C)cc(N)c3c2)cc1', 'False'),
  ('O=C(c1ccc(Nc2nccc(-c3cc4ccccc4s3)n2)cc1)N1CCC(N2CCCC2)CC1', 'False'),
  ('O=C1C(Cl)=C(NCCN2CCOCC2)C(=O)c2ncccc21', 'True'),
  ('CC(C)(C)c1ccc(S(=O)(=O)/C=C/C#N)cc1', 'False'),
  ('NC(=O)Nc1sc(-c2ccc(F)cc2)cc1C(N)=O', 'True'),
  ('CC(C)[C@H](CO)Nc1nc(Nc2cc(N)cc(Cl)c2)c2ncn(C(C)C)c2n1', 'True'),
  ('O=C1C(SCCO)=C(SCCO)C(=O)c2ccccc21', 'False'),
  ('Cc1ccc(S(=O)(=O)/C=C/C#N)cc1', 'False'),
  ('O=C1NC(=O)c2c1c1c3ccccc3n3c1c1c2c2ccccc2n1C1CCC3O1', 'True');

----------
target system: LRRK2 G2019S (Homo sapiens, UniProt Q5S007, G2019S)
method summary: In vitro biochemical LRRK2 TR-FRET activity assay
condition label: LRRK2 G2019S, ATP 134 µM (Km,app), LRRKtide substrate, three independent experiments; read-out: Biochemical LRRK2 assay IC50 +/- SD
pIC50: −log10 of the molar value.
measured attribute: pIC50

INSERT INTO assay_data (molecule, target_system, value_prefix, measured_result) VALUES
  ('COc1cc(C(=O)N2CCC(N3CCN(C)CC3)CC2)ccc1Nc1ncc2c(n1)N(C)c1ccccc1C(=O)N2C', 'LRRK2 G2019S (Homo sapiens, UniProt Q5S007, G2019S)', '=', 8.00),
  ('CC(C)(C)c1ccc(S(=O)(=O)/C=C/C#N)cc1', 'LRRK2 G2019S (Homo sapiens, UniProt Q5S007, G2019S)', '<', 4.00),
  ('Oc1c2ccccc2c2c3c(cccc13)N=N2', 'LRRK2 G2019S (Homo sapiens, UniProt Q5S007, G2019S)', '=', 6.66),
  ('Cc1ccc(S(=O)(=O)/C=C/C#N)cc1', 'LRRK2 G2019S (Homo sapiens, UniProt Q5S007, G2019S)', '<', 4.00),
  ('O=C1C(SCCO)=C(SCCO)C(=O)c2ccccc21', 'LRRK2 G2019S (Homo sapiens, UniProt Q5S007, G2019S)', '=', 4.82),
  ('O=C1C(Cl)=C(NCCN2CCOCC2)C(=O)c2ncccc21', 'LRRK2 G2019S (Homo sapiens, UniProt Q5S007, G2019S)', '=', 6.32),
  ('O=Nc1c(-c2c(O)[nH]c3ccccc23)[nH]c2ccccc12', 'LRRK2 G2019S (Homo sapiens, UniProt Q5S007, G2019S)', '<', 5.00),
  ('Cn1cc(/C=C2\C(=O)Nc3cccnc32)c2ccccc21', 'LRRK2 G2019S (Homo sapiens, UniProt Q5S007, G2019S)', '=', 6.49),
  ('CCc1ccc(OCc2ccccc2C(=O)Nc2ccc3nc(C)cc(N)c3c2)cc1', 'LRRK2 G2019S (Homo sapiens, UniProt Q5S007, G2019S)', '<', 4.00),
  ('O=C(O)/C=C\C(=O)O.O=C1/C(=C/c2ccccc2)C[C@@]2(O)[C@H]3Cc4ccc(O)c5c4[C@@]2(CCN3CC2CC2)[C@H]1O5 [BNTX maleate]', 'LRRK2 G2019S (Homo sapiens, UniProt Q5S007, G2019S)', '<', 4.00),
  ('[O-][S+](c1ccccc1)c1ccc2nnnn2n1 (stereo not drawn)', 'LRRK2 G2019S (Homo sapiens, UniProt Q5S007, G2019S)', '<', 4.00),
  ('O=C(c1ccc(Nc2nccc(-c3cc4ccccc4s3)n2)cc1)N1CCC(N2CCCC2)CC1', 'LRRK2 G2019S (Homo sapiens, UniProt Q5S007, G2019S)', '=', 7.30);
